test: The compound was tested for the inhibitory activity of FK506 binding protein; parameters: species or system Homo sapiens
Non-standard residues stand in square brackets, D forms with d. Residues, ends and D or L forms follow the SMILES beside them. Pip = O=C(O)[C@@H]1CCCCN1
Listed molecules paired with reported IC50
Metric: IC50 (µM)

Molecule	Units symbol	Result operator	Reported measurement
COc1cccc(C(=O)CN2CCCC[C@H]2C(=O)N[C@@H](Cc2ccccc2)C(=O)N[C@H](/C=C/COC(=O)c2ccccc2)C(C)C)c1	µM	=	62
COc1cccc(C(=O)CN2CCCC2C(=O)NC(Cc2ccccc2)C(=O)OC(C)(C)C)c1 (stereo not given)	µM	=	12
C[C@@H](/C=C/c1ccc(C(=O)C(=O)N2CCCC2C(=O)NC(Cc2ccccc2)C(=O)OC(C)(C)C)s1)CO[Si](C)(C)C(C)(C)C (stereo not given in full)	µM	>	100
COc1cccc(C(=O)CN2CCCC[C@H]2C(=O)N[C@@H](Cc2ccccc2)C(=O)N[C@H](C(=O)Cc2ccccc2)C(C)C)c1	µM	=	14
COc1cccc(C(=O)CN2CCCC[C@H]2C(=O)N[C@@H](Cc2ccccc2)C(=O)N[C@H](C(=O)N[C@@H](Cc2ccccc2)C(=O)OC(C)(C)C)C(C)C)c1	µM	=	20
C[C@@H](/C=C/c1ccc(C(=O)C(=O)N2CCCC[C@H]2C(=O)NC(Cc2ccccc2)C(=O)OC(C)(C)C)s1)CO (stereo not given in full)	µM	=	9
COC1CCCC(C(=O)CN2CCCC2C(=O)NC(Cc2ccccc2)C(=O)OC(C)(C)C)C1 (stereo not given)	µM	>	100
COc1cccc(C(=O)CN2CCCC[C@H]2C(=O)N[C@@H](Cc2ccccc2)C(=O)NC(CC(C)C)C(=O)OC(C)(C)C)c1 (stereo not given in full)	µM	=	3
C=CCOC/C=C/[C@@H](NC(=O)[C@H](Cc1ccccc1)NC(=O)[C@@H]1CCCCN1CC(=O)c1cccc(OC)c1)C(C)C	µM	=	3
COC(=O)[C@H](Cc1ccccc1)NC(=O)[C@@H](NC(=O)[C@H](Cc1ccccc1)NC(=O)[C@@H]1CCCCN1)C(C)C (H-[Pip]FVF-OMe)	µM	>	100
CCOC(=O)/C=C/[C@@H](NC(=O)[C@H](Cc1ccccc1)NC(=O)[C@@H]1CCCCN1CC(=O)c1cccc(OC)c1)C(C)C	µM	=	15
CC(C)C(NC(=O)[C@H](Cc1ccccc1)NC(=O)[C@@H]1CCCCN1CC(=O)c1ccc2ccccc2c1)C(=O)OC(C)(C)C (stereo not given in full)	µM	=	1
COc1cccc(C(=O)CN2CCCC[C@H]2C(=O)N[C@@H](Cc2ccccc2)C(=O)NC(C(=O)OC(C)(C)C)C(C)C)c1 (stereo not given in full)	µM	=	3
CC(C)(C)OC(=O)C(CC1CCCCC1)NC(=O)[C@H](Cc1ccccc1)NC(=O)[C@@H]1CCCCN1CC(=O)c1ccc2ccccc2c1 (stereo not given in full)	µM	=	35
COC(=O)[C@H](Cc1ccccc1)NC(=O)[C@@H](NC(=O)[C@H](Cc1ccccc1)NC(=O)[C@@H]1CCCCN1CC(=O)c1cccc(OC)c1)C(C)C	µM	=	1
CC(C)[C@H](NC(=O)[C@H](Cc1ccccc1)NC(=O)[C@@H]1CCCCN1CC(=O)c1ccc2ccccc2c1)C(=O)N[C@@H](Cc1ccccc1)C(=O)OC(C)(C)C	µM	=	13
COc1cccc(C(=O)CN2CCCC[C@H]2C(=O)N[C@@H](Cc2ccc([N+](=O)[O-])cc2)C(=O)OC(C)(C)C)c1	µM	=	27
CC(C)[C@H](NC(=O)[C@H](Cc1ccccc1)NC(=O)[C@@H]1CCCCN1CC(=O)c1ccc2ccccc2c1)C(=O)N[C@@H](Cc1ccccc1)C(=O)N[C@H](C)c1cccc2ccccc12	µM	=	75
COc1cccc(C(=O)CN2CCCC[C@H]2C(=O)N[C@@H](Cc2ccccc2)C(=O)N[C@H](/C=C/COC(=O)C(F)(F)F)C(C)C)c1	µM	=	1
COc1cccc(C(=O)CN2CCCC[C@H]2C(=O)N[C@@H](Cc2ccccc2)C(=O)N[C@H](C(=O)N[C@@H](Cc2ccccc2)C(=O)N[C@H](C)c2ccccc2)C(C)C)c1	µM	=	85
CC(C)[C@H](NC(=O)[C@H](Cc1ccccc1)NC(=O)[C@@H]1CCCCN1CC(=O)c1ccc2ccccc2c1)C(=O)N[C@@H](Cc1ccccc1)C(=O)N[C@H](C)c1ccccc1	µM	=	65
C=CCCC(NC(=O)[C@H](Cc1ccccc1)NC(=O)[C@@H]1CCCCN1CC(=O)c1cccc(OC)c1)C(=O)OC(C)(C)C (stereo not given in full)	µM	=	12
COc1cccc(C(=O)CN2CCCC[C@H]2C(=O)N[C@@H](Cc2ccccc2)C(=O)N[C@H](/C=C/C(=O)N[C@@H](C)c2ccccc2)C(C)C)c1	µM	=	40
COc1cccc(C(=O)CN2CCCC[C@H]2C(=O)N[C@@H](Cc2ccccc2)C(=O)N[C@H](C(=O)N[C@@H](Cc2ccccc2)C(=O)O[C@@H](C)c2ccccc2)C(C)C)c1	µM	=	56
COc1cccc(C(=O)CN2CCCC[C@H]2C(=O)N[C@@H](CCc2ccccc2)C(=O)OC(C)C)c1	µM	>	100

FYI, the data here is from ChEMBL document CHEMBL1126200.
